# Test system: MS2 coat protein
# testMethodNotes: apparent KD of MS2 coat protein; designed switch direction (-1 OFF switch, 1 ON switch): -1; higher = weaker reporter binding
# testSettings: input ligand: none
Decide using apparent KD of MS2 coat protein: a value greater than or equal to 30 nM is true (1), a smaller one is false (0).

The following sequences have reported results that may help.
orderedResidues	answerLabel
GAUCCUCAGACGGACGUCACGAAACAUGAGGAUCACCCAUGUGAGGAUAUCUCCAAAAGGUCGGCAGAGAAGGCACCAUAACAA [Eternabot solution 19] (Eterna round: R96, puzzle: Exclusion NG 3)	true (1)
UUCAGGCGAGGAUAUCCAUGAAGUAACAUGAGGAUCACCCAUGUUCGCUGUUACUCCGAAGGAGAAGGUGCUCUGG [Eternabot (L2) Solution 25] (Eterna round: R97, puzzle: Exclusion 5)	true (1)
GAAAAGUGAGGAUAUCGACAUCUCGACAUGAGGAUCACCCAUGUUGUAGGUCGUGUCGAGCGAGAAGGCACAAUAA [EX5 B.9] (Eterna round: R97, puzzle: Exclusion 5)	false (0)
CAGGUGUAAGGAUAUACCGGAUGGUCCAAAGCUUGGCAAAGACAUGAGGAUCACCCAUGUAGAAGGUACGUCCG [Eternabot (Original) Solution 21] (Eterna round: R97, puzzle: Exclusion 2)	true (1)

Moving on to another sequence below.
Exercise: Hi, just wondering whether CGAUGAGGAGUGAGGAUAUCGUGUUCGAAAGAACGUGAGAAGGCACAUGAGGAUCACCCAUGUGAACCUUGUCG [Omei Ex4B A10] (Eterna round: R97, puzzle: Brourd's mod of Exclusion 4) shows apparent KD of MS2 coat protein of 30 nM or higher.
Solution: false (0)

---

# System: MS2 coat protein
# testMethodNotes: apparent KD of MS2 coat protein; designed switch direction (-1 OFF switch, 1 ON switch): -1; higher = weaker reporter binding
# testSettings: input ligand: none
Decide using apparent KD of MS2 coat protein: a value greater than or equal to 20 nM is y, a smaller one is n.

orderedResidues	subjectOfTest	answerLabel
AUAAGUGAUAAGGAUAUCACUAGCCUCGGCUAGUGAGAAGGUAUCACAUGAGGAUCACCCAUGUGUUCCAAUAA [Ex6/7-A2] (Eterna round: R97, puzzle: Exclusion 6)	MS2 coat protein	y

Exercise: Hi, just wondering whether AGGUGUAGAGGAUAUCUCUUCUCUCACAUGAGGAUCACCCAUGUCCUAAAGUCCUAGGAGAGAGAAGGCUACACCA [Omei Ex5 D3] (Eterna round: R97, puzzle: Exclusion 5) shows apparent KD of MS2 coat protein of 20 nM or higher.
Solution: y

Exercise: Hi, just wondering whether AGUAACCGGGCUUUUUGCUACAUGAGGAUCACCCAUGUUUAAGCGGAGGGAUUGAUCGUCCUAAAUUCUUUAGUCGG [Eternabot (L2) Solution 8] (Eterna round: R97, puzzle: Sensor, turn-off variant 1) shows apparent KD of MS2 coat protein of 20 nM or higher.
Solution: n

Exercise: Hi, just wondering whether GGAAAACGCUGAGGAUAUGGAAGGAAAGGAAGACCAGAAGGCAGGGUCACACAACAUGAGGAUCACCCAUGUGUGUGUAGCGGA [exng1 ex3] (Eterna round: R96, puzzle: Exclusion NG 1) shows apparent KD of MS2 coat protein of 20 nM or higher.
Solution: n

Exercise: Hi, just wondering whether GAUGCACAUGAGGAUCACCCAUGUGAGGAUAUCAUUCCUAGAUCAGUCGGUCAGGAAAUGAGAAGGCGCCGGGA [Eternabot (L2) Solution 5] (Eterna round: R97, puzzle: Exclusion 1) shows apparent KD of MS2 coat protein of 20 nM or higher.
Solution: y

---

# Tested on: K4 kissing-loop RNA reporter
# testMethodNotes: apparent KD of K4 kissing-loop reporter; higher = weaker reporter binding
# testSettings: Eterna round: R107; input ligand: arginine 13.2 mM
readoutLabel: apparent KD of K4 kissing-loop reporter
Value and unit, in that order.

orderedResidues	apparent KD of K4 kissing-loop reporter
GUGCGGCUAGUGAUGUUGGUUGCGUGGGAAGGAGCGCAGUAAAAUGCAGGUAGGUCGCCCGCAUCUCUGAUAAAAGAUUAAUUCA [KL-SSArg-A9]	196 nM
UAUUGAUUGUCAGGAUAUCGUAAACGAGUGAUGUUCGUAUAUUGACGAUAGUCAAUUCUAUCUGAACGAGAAGGGACAUUAUUUA [JR_SSFMNB_Sub009]	301 nM
UCAUGAGAGACGGCCGCCACUGAAGCAGCUCUGUAAGAGCUGCAACAGUAGAGUGAUGUUCUGCGCAGGACCGGGUCGUCAUGAA [KL-SSTryp-B9]	206 nM

Form: sequence = AGUGGACAUGUCUAGAGUGAUGUUCUGGAUACCAGACACGAAAGUGUCCCUUGGCAGCCGGAGUGAUGUUCUGGAGUUCACUAAA [Omei KL Theo A Exc B v8] ; apparent KD of K4 kissing-loop reporter = 296 nM

---

Below, each entry is listed alongside its reported apparent KD of K4 kissing-loop reporter.
# Test system: K4 kissing-loop RNA reporter
# testMethodNotes: apparent KD of K4 kissing-loop reporter; higher = weaker reporter binding
# testSettings: Eterna round: R107; input ligand: FMN 200 uM
Hi! Could you send only the number? It should be in nM, unit omitted.

orderedResidues	subjectOfTest	apparent KD of K4 kissing-loop reporter (nM)
GCUCAGGAGUGAUGUUCCAAGUGAUGUUAACGAGGACCGGUACGGCCGCCACUCGAUACGGCCGGACCGUAAGAUAAACUAGAGC [Same State - Tryptophan A (Freestyle 8)]	K4 kissing-loop RNA reporter	196
AACGCUGUGAAUAACACAGCGAAUAAUUCGCGAGGACCGGUACGGCCGCCACUCGCUAACUGCGAGUGAUGUUCGAUAAUAAAAU [Mat - Mod of OpenEnded 3 - D12]	K4 kissing-loop RNA reporter	148
AAUAUAGUGAUGUUAUAUAAGGAAAGAAGGCGAGGACCGGUACGGCCGCCACUCGAAAGGUGAGAAGGUGGCGAAGAAGAAAGAA [ExTryptoA.B]	K4 kissing-loop RNA reporter	312
UGACUGGACUGAAGGAGCGCUAAAACUCCUAGUGAUGUUGGGAAAUAAGAGACAAAGUCUCAGCAGGUAGGUCGCAGUCUAGUCU [ArgBS 24 #SwitchBubble #StaticStem]	K4 kissing-loop RNA reporter	481
UGACAUUGCUCAGAUACCAGACCUGAGGAUCACCCAGGUGCCAAAACGUACUAAAUAAAGGUCCCUUGGCAGCUGAGCAAUGUCU [TheoBX 13]	K4 kissing-loop RNA reporter	63.6

Form: sequence = ACAGGAUCGAAAGAUCCUGAGCAGUCUAACCGAGGACCGGUACGGCCGCCACUCGGAGUGAUGUUCCGAGGACUGCAAAAUAAAA [#SwitchBubble 2 #CoaxialStacking] ; apparent KD of K4 kissing-loop reporter = 330

Form: sequence = GUUUUAUAGGAGGAUACCAGUACAAAUAAAGUGCAUUAAUAGUAGAGUGAUGUUCUAAAGUACCCUUGGCAGCUUAGUUUAAGUU [#26 K4 Theophylline B Exclusion] ; apparent KD of K4 kissing-loop reporter = 151

---

# System: K4 kissing-loop RNA reporter;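 note: bound reporter read as fluorescence of individual clusters on recovered sequencing chips by microscopy, with normalized cluster intensities fitted with a binding model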
# testMethodNotes: apparent KD of K4 kissing-loop reporter; higher = weaker reporter binding
# testSettings: Eterna round: R107; input ligand: none
readoutLabel: apparent KD of K4 kissing-loop reporter (nM)
Hi! Could you send only the number? It should be in nM, unit omitted.

orderedResidues	recordedResult
AUUGUCGGAGUCUGUGCUGACUGACGAGCAAAGGAUAUGUUAUUAAACAGAAGGUUGUGCUGCUUAAGUGAUGUUUUUGGAGCUA [theeternabot_sameState_KL_FMN_A_26]	239
ACCUGUGACUGAAGGAGCGUCUACUCCAGAGGAUGGAGUGAUGUUCCACUUUAAUGGAGUGGACAGGUAGGUCGCAGUCAUAGGA [Arg B SS t6]	108
GUUUGGCUCCGAAGACGGCAGUGGGAAAUAUAGGAUAUCUAGAAAUAGAGAAGGAUACUAGUGAUGUUAGUAUCGGAUAAAACAA	73

Form: sequence = GGGAGUAGUGCGGCCGCCACUGAGAAAGAAGAAGAAUAUAGUGAUGUUAUAUAGGAAAGGAAGAACAGGACCGGGCAUUAGAUUU [SSTRyptB.F] ; apparent KD of K4 kissing-loop reporter = 251

Form: sequence = UGGGAUGGGCGAGGAUAUGGUGAUGUUUGGGUUGUUAGUGAUGUUGGUGAUGCUGGUGGUGUUUGUCCAGAAGGCGCGGUUUUUU [Bdazzled 3] ; apparent KD of K4 kissing-loop reporter = 119

Form: sequence = AAUAUAGUGAUGUUAUAUAAGAAGGAGUUACGAGGACCGGUACGGCCGCCACUCGAAACGAGUGAGGGUUUGGGAGAUUGGGCCC [SSTryptA.J] ; apparent KD of K4 kissing-loop reporter = 451

Form: sequence = GUAGCACUCGGUAGUGAUGUUAUCGAGGACAAGGAUAUCAUCUCAAUGAGAAGGUGUCCUUGAUAACAGCUACGGGAAUAUCCCA [Omei KL FMN A Exc D v4] ; apparent KD of K4 kissing-loop reporter = 134

Form: sequence = CGAGUGAUGUUCGUUUUUUACUCUGUUUGACAGGAUAUGCGGAAACGCAGAAGGGUCACCUUUGAGUUAGACGGAGUUAUUUUUU [Ex FMN A 21] ; apparent KD of K4 kissing-loop reporter = 322

Form: sequence = UUAGUACAUAGAGAUACCAGCCAUCGAAGUGAUGUUUCGAGAAAUAAUGAUGUUGGUAUAGGCCCUUGGCAGCUCUAUGUACAUU [AK1 Exc Theophylline B] ; apparent KD of K4 kissing-loop reporter = 104

Form: sequence = UGACUGGAUGGAAGGAGCGCUAAACUCCUAGUGAUGUUAGGGAUACGAGACAAAGUCUUGAGGCAGGUAGGUCGCCAUCUAGUCU [FiskerMod 11 - Jieux - Same State - Arginine B] ; apparent KD of K4 kissing-loop reporter = 147

Form: sequence = GGCCCGGGCGCGGCCGCCACUCCCUCGUACCGAAAGGUAUGAUACCGAGUGAUGUUCGGUUGGAGGAGGACCGGGCGCCCGGGCC [#2 Exclusion - Tryptophan B Attempt #4 (HarryS)] ; apparent KD of K4 kissing-loop reporter = 105

Form: sequence = GGUAGCAUGGCGGCCGCCACUCAUCGCCUCCCAUCGUCGGGAAGAAUAAGUGUAGUGAUGUUACAGAGGACCGGGCCAUGCUACC ; apparent KD of K4 kissing-loop reporter = 898

Form: sequence = UGUGUUUACCUGACUCAGUGAUGUUGAGAAGGAGCGUGAGAAAGCACAGGUAGGUCGCUCAACCUAAAUUCAGGUGAGCACUAAA ; apparent KD of K4 kissing-loop reporter = 238
